Tested on: Aspergillus brasiliensis
protocol: Antifungal activity against Aspergillus brasiliensis ATCC 16404 assessed as diameter of inhibition zone at 0.5 mg/ml incubated for 72 hrs by agar diffusion method
Type: functional
cond: read-out: DIZ
Reported values of zone of inhibition at 500 µg/mL for individual entries
Numeric only. Scale: mm

CCOC(=O)C1=C(N)OC(c2ccccc2)=C(C(C)=O)C12C(=O)Nc1ccc(S(=O)(=O)N3CCCCC3)cc12 (stereo not drawn) ... 17

Which measured zone of inhibition at 500 µg/mL value corresponds to CC(=O)C1=C(c2ccccc2)OC(N)=C(C#N)C12C(=O)Nc1ccc(S(=O)(=O)N3CCOCC3)cc12 (stereo not drawn) ? 20

What measured zone of inhibition at 500 µg/mL goes with CCOC(=O)C1=C(N)OC(c2ccccc2)=C(C(=O)OCC)C12C(=O)Nc1ccc(S(=O)(=O)N3CCCCC3)cc12 (stereo not drawn) ? 17

Can you share its zone of inhibition at 500 µg/mL? I mean this molecule: CCOC(=O)C1=C(C)OC(N)=C(C#N)C12C(=O)Nc1ccc(S(=O)(=O)N3CCCCC3)cc12 (stereo not drawn) 10

Each recorded value in this set is attributed to ChEMBL document CHEMBL4680155.
